From: patent US12398141B2

# TARGET ENTITY: JAK1 (Homo sapiens (Human), UniProt P23458)
# Sequence (P23458 whole entry): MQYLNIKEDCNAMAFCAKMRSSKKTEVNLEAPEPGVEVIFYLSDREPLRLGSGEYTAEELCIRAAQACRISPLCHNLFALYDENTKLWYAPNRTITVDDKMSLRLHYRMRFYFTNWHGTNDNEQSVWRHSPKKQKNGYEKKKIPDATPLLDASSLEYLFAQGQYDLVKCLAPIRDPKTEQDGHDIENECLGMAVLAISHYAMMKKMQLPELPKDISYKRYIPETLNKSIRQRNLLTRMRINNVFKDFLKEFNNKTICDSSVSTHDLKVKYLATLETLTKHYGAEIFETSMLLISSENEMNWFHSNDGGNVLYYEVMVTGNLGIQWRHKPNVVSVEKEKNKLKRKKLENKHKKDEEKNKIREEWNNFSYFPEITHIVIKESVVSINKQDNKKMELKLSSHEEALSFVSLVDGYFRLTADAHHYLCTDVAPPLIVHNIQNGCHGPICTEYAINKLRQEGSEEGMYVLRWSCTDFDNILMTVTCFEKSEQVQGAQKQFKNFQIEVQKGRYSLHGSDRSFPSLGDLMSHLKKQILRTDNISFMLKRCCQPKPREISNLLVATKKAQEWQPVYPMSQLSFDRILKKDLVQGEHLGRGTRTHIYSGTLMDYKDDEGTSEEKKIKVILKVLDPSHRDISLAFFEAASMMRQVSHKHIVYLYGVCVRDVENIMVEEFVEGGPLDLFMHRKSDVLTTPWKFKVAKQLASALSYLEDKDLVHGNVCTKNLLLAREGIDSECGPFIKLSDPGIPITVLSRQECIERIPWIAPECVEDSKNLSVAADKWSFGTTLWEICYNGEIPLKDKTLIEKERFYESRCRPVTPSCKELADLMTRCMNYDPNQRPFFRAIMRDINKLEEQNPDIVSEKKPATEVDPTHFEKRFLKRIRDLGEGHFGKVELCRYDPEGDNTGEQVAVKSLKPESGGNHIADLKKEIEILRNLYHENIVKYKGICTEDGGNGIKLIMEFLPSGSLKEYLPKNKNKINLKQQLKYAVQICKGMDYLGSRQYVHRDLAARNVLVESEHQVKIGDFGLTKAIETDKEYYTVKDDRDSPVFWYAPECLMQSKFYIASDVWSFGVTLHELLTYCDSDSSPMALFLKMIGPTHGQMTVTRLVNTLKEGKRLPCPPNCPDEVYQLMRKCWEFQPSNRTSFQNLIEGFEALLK
# ASSAY DETAILS: JAK1 LANCE Ultra kinase assay
# Assay type: biochemical
# CONDITIONS: ratio of IC50 JAK2 to IC50 JAK1
REPORTED METRIC: JAK2/JAK1
Respond numerically, and do not add a unit to the figure.

Study these solved cases before continuing.
> print(dat)
                                   compound  value
1  CC[C@@H]1CN(C(=O)NCC(C)(F)F)C[C@@H]1Nc1c(C#N)cnc2[nH]ccc12 (relative stereo)   6.79
2  COc1noc(NC(=O)N2C[C@H]3C[C@H](N(C)c4c(C#N)cnc5[nH]ccc45)C[C@H]3C2)n1   8.33
3  CC[C@@H]1CN(C(=O)NCC#N)C[C@@H]1Nc1c(C(F)(F)F)cnc2[nH]ccc12  11.09
4  CCc1nsc(NC(=O)N2C[C@H]3C[C@H](N(C)c4c(C#N)cnc5[nH]ccc45)C[C@H]3C2)n1   7.69
5  CN(c1c(C#N)cnc2[nH]ccc12)[C@@H]1CC[C@H](CS(=O)(=O)N2CCC(CO)C2)C1 (stereo partly shown)   8.67

The record that follows has no JAK2/JAK1 shown yet.
In: # return recorded JAK2/JAK1 for entry CN(c1c(C#N)cnc2[nH]ccc12)[C@H]1C[C@@H]2CN(C(=O)Nc3nc(OCC(C)(C)N)ns3)C[C@@H]2C1
Out: 23.28
